test system: DLD-1; test: Tumor cell viability (TABLE 1); assay type: cell-based; conditions: Homo sapiens, read-out: EC50 (50% reduction in cell viability); DLD-1 (Colorectal); serum-free conditions, 48 hour treatment; mean ± SEM
endpoint name: EC50

Query: // lookup EC50 | system=DLD-1 | key= CN(C)CC[C@H](CSc1ccccc1)Nc1ccc(S(=O)(=O)NC(=O)c2ccc(N3CCN(Cc4ccccc4-c4ccc(Cl)cc4)CC3)cc2)cc1[N+](=O)[O-]
Response: 990 nM

###

test system: U251; test: Tumor cell viability (TABLE 1); format: cell-based; settings: Homo sapiens, U-251, read-out: EC50 (50% reduction in cell viability); U251 (CNS); serum-free conditions, 48 hour treatment; mean ± SEM
endpoint name: EC50 (µM)
One number for each entry, in µM.

Query: Fill in the blank: the reported EC50 of CN(C)CC[C@H](CSc1ccccc1)Nc1ccc(S(=O)(=O)NC(=O)c2ccc(N3CCN(Cc4ccccc4-c4ccc(Cl)cc4)CC3)cc2)cc1[N+](=O)[O-] [EXAMPLE 2] is ____.
Response: 3.8

###

system: MiaPaCa; assay: Tumor cell viability (TABLE 1); type: cell-based; settings: Homo sapiens, MIA PaCa-2, read-out: EC50 (50% reduction in cell viability); MiaPaCa (Pancreas); serum-free conditions, 48 hour treatment; mean ± SEM
endpoint name: EC50
Numeric answer plus unit only.

Query: Fill in the blank: the reported EC50 of CN(C)CC[C@H](CSc1ccccc1)Nc1ccc(S(=O)(=O)NC(=O)c2ccc(N3CCN(Cc4ccccc4-c4ccc(Cl)cc4)CC3)cc2)cc1[N+](=O)[O-] is ____.
Response: 1400 nM

###

tested on: DU-145; assay: Tumor cell viability (TABLE 1); type: cell-based; settings: Homo sapiens, read-out: EC50 (50% reduction in cell viability); DU-145 (Prostate); serum-free conditions, 48 hour treatment; mean ± SEM
endpoint name: pEC50
Answers are plain numbers, as −log10 of the molar value.

Query: Fill in the blank: the reported pEC50 of CN(C)CC[C@H](CSc1ccccc1)Nc1ccc(S(=O)(=O)NC(=O)c2ccc(N3CCN(Cc4ccccc4-c4ccc(Cl)cc4)CC3)cc2)cc1[N+](=O)[O-] [EXAMPLE 2] is ____.
Response: 5.09

###

tested on: NCI-H460; assay: Tumor cell viability (TABLE 1); assay type: cell-based; conditions: Homo sapiens, read-out: EC50 (50% reduction in cell viability); NCI-H460 (Non-Small Cell Lung); serum-free conditions, 48 hour treatment; mean ± SEM
endpoint name: pEC50
Answers are plain numbers, as −log10 of the molar value.

Query: // lookup pEC50 | system=NCI-H460 | key= CN(C)CC[C@H](CSc1ccccc1)Nc1ccc(S(=O)(=O)NC(=O)c2ccc(N3CCN(Cc4ccccc4-c4ccc(Cl)cc4)CC3)cc2)cc1[N+](=O)[O-]
Response: 5.64

###

system: HOP-62; assay: Tumor cell viability (TABLE 1); assay type: cell-based; settings: Homo sapiens, read-out: EC50 (50% reduction in cell viability); HOP-62 (Non-Small Cell Lung); serum-free conditions, 48 hour treatment; mean ± SEM
endpoint name: pEC50
Answers are plain numbers, as −log10 of the molar value.

Query: Fill in the blank: the reported pEC50 of CN(C)CC[C@H](CSc1ccccc1)Nc1ccc(S(=O)(=O)NC(=O)c2ccc(N3CCN(Cc4ccccc4-c4ccc(Cl)cc4)CC3)cc2)cc1[N+](=O)[O-] [EXAMPLE 2] is ____.
Response: 5.20

###

test system: 786-0; experiment: Tumor cell viability (TABLE 1); type: cell-based; settings: Homo sapiens, read-out: EC50 (50% reduction in cell viability); 786-0 (Renal); serum-free conditions, 48 hour treatment; mean ± SEM
endpoint name: pEC50
Numbers only, as −log10 of the molar value.

Query: Fill in the blank: the reported pEC50 of CN(C)CC[C@H](CSc1ccccc1)Nc1ccc(S(=O)(=O)NC(=O)c2ccc(N3CCN(Cc4ccccc4-c4ccc(Cl)cc4)CC3)cc2)cc1[N+](=O)[O-] is ____.
Response: 5.54

###

test system: SF-295; experiment: Tumor cell viability (TABLE 1); format: cell-based; conditions: Homo sapiens, read-out: EC50 (50% reduction in cell viability); SF-295 (CNS); serum-free conditions, 48 hour treatment; mean ± SEM
endpoint name: pEC50
One number for each entry, as −log10 of the molar value.

Query: Fill in the blank: the reported pEC50 of CN(C)CC[C@H](CSc1ccccc1)Nc1ccc(S(=O)(=O)NC(=O)c2ccc(N3CCN(Cc4ccccc4-c4ccc(Cl)cc4)CC3)cc2)cc1[N+](=O)[O-] is ____.
Response: 5.11

###

system: D54MG; assay: Tumor cell viability (TABLE 1); type: cell-based; conditions: Homo sapiens, read-out: EC50 (50% reduction in cell viability); D54MG (Glioma); serum-free conditions, 48 hour treatment; mean ± SEM
endpoint name: EC50 (µM)
Give bare numbers, in µM.

Query: Fill in the blank: the reported EC50 of CN(C)CC[C@H](CSc1ccccc1)Nc1ccc(S(=O)(=O)NC(=O)c2ccc(N3CCN(Cc4ccccc4-c4ccc(Cl)cc4)CC3)cc2)cc1[N+](=O)[O-] is ____.
Response: 3.1

###

tested on: U87MG; experiment: Tumor cell viability (TABLE 1); type: cell-based; settings: Homo sapiens, U-87 MG, read-out: EC50 (50% reduction in cell viability); U87MG (Glioma); serum-free conditions, 48 hour treatment; mean ± SEM
endpoint name: EC50 (nM)
Answers are plain numbers, in nM.

Query: // lookup EC50 | system=U87MG | key= CN(C)CC[C@H](CSc1ccccc1)Nc1ccc(S(=O)(=O)NC(=O)c2ccc(N3CCN(Cc4ccccc4-c4ccc(Cl)cc4)CC3)cc2)cc1[N+](=O)[O-] [EXAMPLE 2]
Response: 2700

###

test system: SK-MEL-5; assay: Tumor cell viability (TABLE 1); assay type: cell-based; conditions: Homo sapiens, read-out: EC50 (50% reduction in cell viability); SK-MEL-5 (Melanoma); serum-free conditions, 48 hour treatment; mean ± SEM
endpoint name: pEC50
One number for each entry, as −log10 of the molar value.

Query: // lookup pEC50 | system=SK-MEL-5 | key= CN(C)CC[C@H](CSc1ccccc1)Nc1ccc(S(=O)(=O)NC(=O)c2ccc(N3CCN(Cc4ccccc4-c4ccc(Cl)cc4)CC3)cc2)cc1[N+](=O)[O-] [EXAMPLE 2]
Response: 5.43

###

tested on: SW-620; test: Tumor cell viability (TABLE 1); type: cell-based; details: Homo sapiens, read-out: EC50 (50% reduction in cell viability); SW-620 (Colorectal); serum-free conditions, 48 hour treatment; mean ± SEM
endpoint name: EC50
Numeric answer plus unit only.

Query: // lookup EC50 | system=SW-620 | key= CN(C)CC[C@H](CSc1ccccc1)Nc1ccc(S(=O)(=O)NC(=O)c2ccc(N3CCN(Cc4ccccc4-c4ccc(Cl)cc4)CC3)cc2)cc1[N+](=O)[O-]
Response: 690 nM
